# MEASUREMENT_TARGET: Factor X, P00742
# Sequence (P00742 whole entry, looked up): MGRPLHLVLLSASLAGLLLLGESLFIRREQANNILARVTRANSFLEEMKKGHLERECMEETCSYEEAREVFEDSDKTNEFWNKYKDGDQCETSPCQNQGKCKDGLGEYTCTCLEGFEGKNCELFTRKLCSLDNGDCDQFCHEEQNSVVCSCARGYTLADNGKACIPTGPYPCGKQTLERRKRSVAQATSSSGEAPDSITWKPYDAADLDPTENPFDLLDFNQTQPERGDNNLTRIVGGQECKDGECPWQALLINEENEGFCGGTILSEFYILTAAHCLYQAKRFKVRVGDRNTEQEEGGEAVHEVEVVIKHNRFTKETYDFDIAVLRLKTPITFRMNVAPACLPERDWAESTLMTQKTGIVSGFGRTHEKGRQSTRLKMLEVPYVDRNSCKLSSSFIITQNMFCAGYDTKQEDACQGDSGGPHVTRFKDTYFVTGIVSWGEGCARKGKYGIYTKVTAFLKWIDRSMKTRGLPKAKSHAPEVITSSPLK
MEASUREMENT_LABEL: kcat/KM (M⁻¹ s⁻¹)
Lab book: enter the figure in M⁻¹ s⁻¹, no units written.

- FIXa-D203N/F205T/R318Y (protein) chain 1: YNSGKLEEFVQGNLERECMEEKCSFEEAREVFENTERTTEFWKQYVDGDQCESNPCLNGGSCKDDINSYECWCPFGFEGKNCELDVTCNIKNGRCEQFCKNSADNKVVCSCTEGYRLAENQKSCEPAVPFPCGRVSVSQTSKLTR chain 2: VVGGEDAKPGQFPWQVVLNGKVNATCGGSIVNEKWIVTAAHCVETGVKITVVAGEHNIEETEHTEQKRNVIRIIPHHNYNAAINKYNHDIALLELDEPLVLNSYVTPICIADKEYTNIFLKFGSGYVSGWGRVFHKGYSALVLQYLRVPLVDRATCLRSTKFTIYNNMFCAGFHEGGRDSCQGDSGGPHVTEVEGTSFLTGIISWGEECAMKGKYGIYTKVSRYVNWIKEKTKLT: 2e+07

Let us move to another entry and its kcat/KM.
Input line: For FIXa-K247N/N249S/R318Y/R403E/E410N (protein) chain 1: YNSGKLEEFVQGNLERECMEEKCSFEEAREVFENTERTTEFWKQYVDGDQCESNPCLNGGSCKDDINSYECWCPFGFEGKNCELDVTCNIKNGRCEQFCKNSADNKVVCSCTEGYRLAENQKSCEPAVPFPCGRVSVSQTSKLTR chain 2: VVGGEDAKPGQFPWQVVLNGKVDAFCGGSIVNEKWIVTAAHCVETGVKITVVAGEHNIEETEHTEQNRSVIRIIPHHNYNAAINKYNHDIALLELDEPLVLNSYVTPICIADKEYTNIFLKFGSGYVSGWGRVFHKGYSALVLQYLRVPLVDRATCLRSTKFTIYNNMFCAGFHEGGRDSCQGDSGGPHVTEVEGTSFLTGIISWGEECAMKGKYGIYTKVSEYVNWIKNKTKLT , what is its reported kcat/KM?
Output line: 2.7e+07
